Tested on: Jurkat
assay.text: MTT assay, Jurkat cells
Type: cell-based, human
stated.conditions: Homo sapiens, Jurkat; MTT, 72 h of incubation; read-out: IC50 values ± SD, Jurkat
IC50 values by entry
property.name: IC50 (µM)

molecule=N#CC1=CC2(c3ccccc3Nc3ccccc32)N(/N=C2\SCC(=O)N2c2ccc(F)cc2)C1=O value_operator=> measured_result=100
molecule=CCOC(=O)/C=C1\S/C(=N\N2C(=O)C(C#N)=CC23c2ccccc2Nc2ccccc23)N(c2ccc(OC)cc2)C1=O value_operator== measured_result=5.67
molecule="CCCC1S/C(=N\\N2C(=O)C(C#N)=CC23c2ccccc2Nc2ccccc23)N(c2ccc(F)cc2)C1=O (stereo not shown) [10d]" value_operator=> measured_result=100
molecule=CCOC(=O)/C=C1\S/C(=N\N2C(=O)C(C#N)=CC23c2ccccc2Nc2ccccc23)N(c2ccc(F)cc2)C1=O value_operator== measured_result=5.64
molecule=N#CC1=CC2(c3ccccc3Nc3ccccc32)N(/N=C2\SCC(=O)N2c2ccccc2)C1=O value_operator=> measured_result=100
molecule="CC1S/C(=N\\N2C(=O)C(C#N)=CC23c2ccccc2Nc2ccccc23)N(c2ccc(F)cc2)C1=O (stereo not shown)" value_operator=> measured_result=100
molecule="COc1ccc(N2C(=O)C(C)S/C2=N\\N2C(=O)C(C#N)=CC23c2ccccc2Nc2ccccc23)cc1 (stereo not shown)" value_operator=> measured_result=100
molecule=CCOC(=O)/C=C1\S/C(=N\N2C(=O)C(C#N)=CC23c2ccccc2Nc2ccccc23)N(c2ccc([N+](=O)[O-])cc2)C1=O value_operator== measured_result=5.6
molecule=COc1cccc(N2C(=O)CS/C2=N\N2C(=O)C(C#N)=CC23c2ccccc2Nc2ccccc23)c1 value_operator== measured_result=22.1
molecule="CCCC1S/C(=N\\N2C(=O)C(C#N)=CC23c2ccccc2Nc2ccccc23)N(c2cccc(OC)c2)C1=O (stereo not shown) [10c]" value_operator=> measured_result=100
molecule=COc1ccc(N2C(=O)CS/C2=N\N2C(=O)C(C#N)=CC23c2ccccc2Nc2ccccc23)cc1 value_operator=> measured_result=100
molecule=N#CC1=CC2(c3ccccc3Nc3ccccc32)N(/N=C2\SCC(=O)N2c2ccc([N+](=O)[O-])cc2)C1=O value_operator== measured_result=35.5
molecule="CCCC1S/C(=N\\N2C(=O)C(C#N)=CC23c2ccccc2Nc2ccccc23)N(c2ccc([N+](=O)[O-])cc2)C1=O (stereo not shown) [10e]" value_operator=> measured_result=100
molecule=N#CC1=CC2(c3ccccc3Nc3ccccc32)N(NC(=S)Nc2ccc([N+](=O)[O-])cc2)C1=O value_operator== measured_result=7.82
molecule=N#CC1=CC2(c3ccccc3Nc3ccccc32)N(NC(=S)Nc2ccc(F)cc2)C1=O value_operator== measured_result=31.8
molecule="CCCC1S/C(=N\\N2C(=O)C(C#N)=CC23c2ccccc2Nc2ccccc23)N(c2ccc(OC)cc2)C1=O (stereo not shown) [10b]" value_operator=> measured_result=100

----------
Test system: HeLa
assay.text: MTT assay, HeLa cells
Format: cell-based, human
stated.conditions: Homo sapiens, HeLa, 72 h of incubation, read-out: IC50 values ± SD, HeLa
pIC50: −log10 of the molar value.
pIC50 values by entry
property.name: pIC50

compound="N#CC1=CC2(c3ccccc3Nc3ccccc32)N(NC(=S)Nc2ccccc2)C1=O [6a]" property_name=pIC50 measured_result=4.17
compound="CCCC1S/C(=N\\N2C(=O)C(C#N)=CC23c2ccccc2Nc2ccccc23)N(c2ccccc2)C1=O (centres unmarked) [10a]" property_name=pIC50 measured_result="< 4.00"
compound="COc1ccc(NC(=S)NN2C(=O)C(C#N)=CC23c2ccccc2Nc2ccccc23)cc1 [6b]" property_name=pIC50 measured_result="< 4.00"
compound="CCCC1S/C(=N\\N2C(=O)C(C#N)=CC23c2ccccc2Nc2ccccc23)N(c2ccc(OC)cc2)C1=O (centres unmarked) [10b]" property_name=pIC50 measured_result="< 4.00"
compound="CCOC(=O)/C=C1\\S/C(=N\\N2C(=O)C(C#N)=CC23c2ccccc2Nc2ccccc23)N(c2cccc(OC)c2)C1=O [8c]" property_name=pIC50 measured_result=5.23
compound="COc1cccc(N2C(=O)C(C)S/C2=N\\N2C(=O)C(C#N)=CC23c2ccccc2Nc2ccccc23)c1 (centres unmarked) [9c]" property_name=pIC50 measured_result=4.36
compound="CCCC1S/C(=N\\N2C(=O)C(C#N)=CC23c2ccccc2Nc2ccccc23)N(c2ccc(F)cc2)C1=O (centres unmarked) [10d]" property_name=pIC50 measured_result="< 4.00"
compound="CCCC1S/C(=N\\N2C(=O)C(C#N)=CC23c2ccccc2Nc2ccccc23)N(c2cccc(OC)c2)C1=O (centres unmarked) [10c]" property_name=pIC50 measured_result="< 4.00"
